REPORTED CONDITIONS: 293.15 K; 100 kPa; Liquid; Vibrating tube method
REPORTED METRIC: mass density (kg/m3)

[[record]]
compound = "CCCCCCCCO [octan-1-ol]"
reported_value = 824.9

[[record]]
compound = "CCCCCCCO [heptan-1-ol]"
reported_value = 822.2

[[record]]
compound = "O=C1CCCCC1 [cyclohexanone]"
reported_value = 948.8

[[record]]
compound = "CCCCCCCCCCO [decan-1-ol]"
reported_value = 829.5

[[record]]
compound = "CCCCCO [pentan-1-ol]"
reported_value = 814.5

[[record]]
compound = "CCCCCCO [hexan-1-ol]"
reported_value = 818.7

[[record]]
compound = "CCCCCCCCCO [nonan-1-ol]"
reported_value = 827.5

